Can you tell me z-score for the items I'm about to list?
Assay: JC-1 mitochondrial signal, unstimulated adipocytes – cell-based, JC-1 fluorescence, 3T3-L1 adipocytes, 24 h, 100 nL compound, profiling panel (AID 1168); note: test concentration not given here
Conditions: JC-1 mitochondrial fluorescence, higher = more signal, called active from +8 up or from −8 down
Answers are plain numbers.

// solved cases for z-score follow
Molecule: CC1CC/C=C\[C@H]2OC34C=CCN(C(C)(C)C)C(=O)[C@H]3N(CCCCCO)C(=O)[C@@H]4C2C(=O)O1 (stereo partly drawn)
Quantity measured: z-score
Data value: -0.226
//
Molecule: CCOC(=O)C[C@H]1[C@H](OC(=O)c2ccc(C(=O)c3ccccc3)cc2)[C@@H](NC(=O)c2ccc(-c3ccccc3)cc2)c2cc(OCCCO)ccc2N1C(=O)Cc1ccc(OC)cc1
Quantity measured: z-score
Data value: -0.0721
//
Molecule: CC(C)=C1C(=O)C(c2ccccc2)=C2CN3C(=O)N(CCc4ccccc4)C(=O)[C@]3(Cc3ccc(C(F)(F)F)cc3)[C@H]21
Quantity measured: z-score
Data value: -0.876
//
Molecule: CCCCN1CC=CC23O[C@@H]4/C=C\CCC(C)OC(=O)C4[C@H]2C(=O)N(CCCO)[C@@H]3C1=O (stereo partly drawn)
Quantity measured: z-score
Data value: 0.276

Kindly give each listed record's z-score.
1. CCCC=C(CCC)[C@@H](NC(=O)C(C)(C)C)c1ccc(C(=O)OC)cc1
2. O=C1OCCC/C=C\[C@H]2OC34C=CCN(c5ccc6ccccc6c5)C(=O)[C@H]3N(CCO)C(=O)[C@@H]4C12 (stereo partly drawn)

-0.614
-0.622

Hi team, please reply with z-score for each item in this list.
1. C=C(COC)/C(=C/C[C@H](OC(=O)c1ccncc1)c1ccc(CO)o1)c1cnc2ccccc2c1
2. C=CC[C@]1(C(=O)N2CCCCC2)N=C(c2ccc(OCCCO)cc2)O[C@H]1c1ccccc1CN=[N+]=[N-]

[-0.582, 0.32]
